# tgt: MEF2D/HDAC4 protein-protein interactions (Homo sapiens (Human))
# measurement.description: Mammalian two-hybrid assay, inhibition of MEF2D and HDAC4 protein interactions (luciferase reporter in HeLa cells)
# condition.parameters: HeLa cells co-transfected with GAL4-MEF2D, HDAC4-VP16 and Gal4Luc; overnight treatment; luciferase normalized to Renilla
experimental.endpoint: IC50 (nM)

See these solved cases before continuing.
- Nc1ccccc1NC(=O)/C=C/c1cccc(CNc2nc3ccccc3s2)c1: 2550
- Nc1ccccc1NC(=O)CCCCC(NC(=O)c1ccccn1)C(=O)Nc1cccnc1 (centres unmarked): 1620

P: COc1cccc(NCc2ccc(F)c(/C=C/C(=O)Nc3ccccc3N)c2)c1
Q: CC(C)(C)OC(=O)N[C@@H](CCCCC(=O)Nc1ccccc1N)C(=O)Nc1cccc(Br)c1
R: CCOC(=O)NC(CCCCC(=O)Nc1ccccc1N)C(=O)Nc1cncc(OCC)c1 (centres unmarked)
Would you mind ranking these molecules by ascending IC50? Reply with the item labels sorted in the order that was asked for. Q, R, P

----------
# tgt: MEF2D/p300 protein-protein interactions (Homo sapiens (Human), UniProt Q14814)
# measurement.description: Mammalian two-hybrid assay, inhibition of MEF2D and P300 protein interactions (luciferase reporter in HeLa cells)
# condition.parameters: HeLa cells co-transfected with GAL4-MEF2D, P300-VP16 and Gal4Luc
experimental.endpoint: IC50 (nM)

See these solved cases before continuing.
• Nc1ccccc1NC(=O)/C=C/c1cccc(CNc2cccc(OC3CC3)c2)c1 = 1600
• Nc1ccccc1NC(=O)/C=C/c1cccc(CNc2nc(C(F)(F)F)co2)c1 = 2730
• Nc1ccccc1NC(=O)CCCCC(NC(=O)c1ccccc1)C(=O)Nc1cccc(Br)c1 (stereo not shown) = 470
• CCOc1cccc(NCc2cccc(/C=C/C(=O)Nc3ccccc3N)c2)c1 = 1100

a: CCOC(=O)NC(CCCCC(=O)Nc1ccccc1N)C(=O)Nc1cccc(OC2CC2)c1 (stereo not shown)
b: COC(=O)NC(CCCCC(=O)Nc1ccccc1N)C(=O)Nc1cccc2cccnc12 (stereo not shown)
c: Nc1ccccc1NC(=O)/C=C/c1cccc(CNCc2cccc(OC3CC3)c2)c1
d: CCC(=O)NC(CCCCC(=O)Nc1ccccc1N)C(=O)Nc1cccc(Br)c1 (stereo not shown)
e: COC(=O)NC(CCCCC(=O)Nc1ccccc1N)C(=O)Nc1nc(-c2ccncc2)cs1 (stereo not shown)
Would you mind ranking these compounds by ascending IC50? Reply with the item labels sorted in the order that was asked for. d, b, e, a, c
(d: 71 nM, b: 140 nM, e: 270 nM, a: 440 nM, c: 790 nM)

P: Nc1ccccc1NC(=O)/C=C/c1cccc(CNc2ccc3ncccc3c2)c1
Q: Nc1ccccc1NC(=O)CCCCC(NC(=O)c1cccnc1)C(=O)Nc1cccc(Br)c1 (stereo not shown)
Higher IC50 between P and Q ? Output the label that corresponds to your choice. Q

----------
# tgt: MEF2D/HDAC4 protein-protein interactions (Homo sapiens (Human), UniProt Q14814)
# Sequence (Q14814 whole entry, species assumed): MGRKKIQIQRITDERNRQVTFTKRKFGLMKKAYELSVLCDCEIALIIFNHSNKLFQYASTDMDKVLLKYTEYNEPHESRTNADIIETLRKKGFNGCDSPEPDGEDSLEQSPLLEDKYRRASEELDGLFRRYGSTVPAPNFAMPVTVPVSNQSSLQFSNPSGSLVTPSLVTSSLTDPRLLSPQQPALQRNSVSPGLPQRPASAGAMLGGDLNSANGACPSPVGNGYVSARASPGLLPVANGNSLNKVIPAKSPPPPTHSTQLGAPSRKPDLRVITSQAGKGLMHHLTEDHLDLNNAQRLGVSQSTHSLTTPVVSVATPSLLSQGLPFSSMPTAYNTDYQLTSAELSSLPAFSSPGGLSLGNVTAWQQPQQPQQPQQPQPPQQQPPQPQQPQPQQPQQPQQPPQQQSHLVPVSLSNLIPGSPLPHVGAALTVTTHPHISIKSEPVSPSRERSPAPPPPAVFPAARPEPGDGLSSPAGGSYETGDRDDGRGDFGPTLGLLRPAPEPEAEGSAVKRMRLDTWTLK
# measurement.description: Mammalian two-hybrid assay, inhibition of MEF2D and HDAC4 protein interactions (luciferase reporter in HeLa cells)
# condition.parameters: HeLa cells co-transfected with GAL4-MEF2D, HDAC4-VP16 and Gal4Luc; overnight treatment; luciferase normalized to Renilla
experimental.endpoint: IC50 (nM)

See these solved cases before continuing.
• CCN(CC)c1cccc(NCc2cccc(/C=C/C(=O)NO)c2)c1 = 1160
• CN(C)c1cccc(NCc2cccc(/C=C/C(=O)NO)c2)c1 = 370
• CCCCc1cccc(NCc2cccc(/C=C/C(=O)NO)c2)c1 = 2030
• COc1ccc(NCC2C=C(/C=C/C(=O)NO)CCC2)cc1 (centres unmarked) = 1880
• Nc1ccccc1NC(=O)CCCCC(NC(=O)c1ccccc1)C(=O)Nc1cccnc1 (centres unmarked) = 1560

P: COC(=O)NC(CCCCC(=O)Nc1ccccc1N)C(=O)Nc1cccc(SC)c1 (centres unmarked)
Q: CCOC(=O)NC(CCCCC(=O)Nc1ccccc1N)C(=O)Nc1cccc2cccnc12 (centres unmarked)
For P and Q , which recorded IC50 is lower? Output the label that corresponds to your choice. P
(P: 470 nM, Q: 940 nM)
